Tested on: UACC-257 melanoma
testDescription: NCI-60 one-dose screen, 48 h (100 = growth as untreated, 0 = no growth, -100 = all killed)
details: 10 µM unless noted
The panel holds about 83,000 compounds, 20% with a hit somewhere; the sample as a whole holds those more often.
Mark true for growth under 60%, false if at or over.

Examples with answers:
O=C1Nc2ccccc2/C1=C/c1nc2ccccc2c(=O)[nH]1
false
CCOC(=O)C1=C(c2ccccc2)N=C2SC=C(c3ccc(Cl)cc3)N2C1c1ccc(Br)cc1 (configuration not stated)
false
[O-]/[N+](=C\c1ccc(-n2cc(Cc3ccccc3Cc3cn(-c4ccc(/C=[N+](/[O-])c5ccccc5)cc4)nn3)nn2)cc1)c1ccccc1
false

Quick check: does O=C(Nc1ccc(Oc2cccc(Cl)c2)c(Cl)c1)c1cccnc1 have growth under 60%?
false

is_below(growth, 60%) for Cc1cc(=O)n(C(=O)Nc2ccccc2Cl)c2cc(O)ccc12 ?
false

Dear colleague, could you confirm whether growth of O=C(Nc1nc2ccc(C(=O)N3CCN(/C=C/c4ccccc4)CC3)cc2s1)c1ccc(NCCc2ccccc2)c([N+](=O)[O-])c1 falls below 60%? Thanks.
true

growth strictly < 60% for this molecule? S=c1sc2c(Cl)nc(-c3cccnc3)nc2n1-c1ccccc1
true

* * *

System: K-562 leukemia
testDescription: NCI-60 one-dose screen, 48 h (100 = growth as untreated, 0 = no growth, -100 = all killed)
details: 10 µM unless noted
The panel holds about 83,000 compounds, 20% with a hit somewhere; the sample as a whole holds those more often.
growth under 40% gets YES, anything at or over 40% gets NO.

Answered examples (6):
COc1ccc(C(=O)C/C(=C\c2ccc(Cl)cc2)C(=O)NCc2ccccc2)cc1
NO
OCCn1cc(-c2nc(-c3c[nH]c4ncccc34)cs2)c2cc(F)ccc21
YES
CS(=O)(=O)Nc1cc(-c2ccc3ncnc(Nc4ccc5c(cnn5Cc5cccc(F)c5)c4)c3c2)cnc1Cl
YES
O=C1/C=C/[C@@H](O)[C@@H]2C[C@@H](O)C[C@H]2/C=C/CCC[C@H](CCc2ccccc2)O1
YES
CCOc1nc(-c2ccccc2)cc2c(O)c(C(=O)N/N=C/c3ccccc3)[nH]c(=O)c12
NO
CCCC/C(CC)=N\NS(=O)(=O)c1ccc([N+](=O)[O-])cc1
NO

Criterion: growth strictly below 40%. Is it met by COc1c(C(=O)Nc2ccc(C)c(Br)c2)ccc2ccccc12 ?
NO

Field: below-cutoff. Rule: recorded growth strictly less than 40%. Subject: CN(C)Cc1ccc(O)c(C(=O)O)c1
NO

# strict comparison: is reported growth < 40%? input = O=C(c1ccccc1)c1ccc(C2CCCCC2)cc1
NO

Below 40% on growth? Entry O=C(c1ccncc1)N1N=C(c2ccc(Cl)cc2)C[C@H]1c1cn(-c2ccccc2)nc1-c1ccccc1
NO

Is 40% strictly greater than the compound's reported growth? compound: O=C1/C(=C/c2ccccc2O)CC/C1=C\c1ccccc1O
YES

* * *

Recorded growth, one value per entry.
Test system: SNB-19 CNS
testDescription: NCI-60 one-dose screen, 48 h (100 = growth as untreated, 0 = no growth, -100 = all killed)
details: 10 µM unless noted
Compounds without any hit were thinned out: in the full panel of roughly 83,000, 20% have a hit.
Give a bare numeral; the unit % is implied.

C=CCSc1nnc(NC(=O)CCl)s1
89.8
CN(C)CCNC(=O)c1ccc(-c2nc3ccc4[nH]ncc4c3c3c2C2CCC3C2)cc1 (stereo not drawn)
60.9

Name the reported growth value associated with the compound C=C(C)[C@@H]1CCC[C@]2(COS(=O)(=O)c3ccc(C)cc3)CC[C@]3(C)[C@@H](CC[C@@H]4[C@@]5(C)CCCNC(C)(C)[C@@H]5CC[C@]43C)[C@@H]12
39

Consider the compound CCc1ccccc1-n1c(-c2ccc(OC)cc2)cc(-c2ccc(OC)cc2)c(C#N)c1=O and give its measured growth.
33.7

Data request, read-out growth, for C#CCOc1cccc(Nc2ncnc3ccc(NC(=O)C=C)cc23)c1
48.2

Which measured growth value corresponds to CCOC(=O)C/C(=N\Nc1cc(=O)[nH]c2ccc(Br)cc12)C(=O)OCC ?
99.5

Could you tell me which growth is on file for O=C1c2c(c3c4ccccc4[nH]c3c3ccc4ccccc4c23)C(=O)N1CCN1CCOCC1 ?
56

Form field: reported growth of O=C(c1ccncc1)N1N=C(c2ccc(Cl)cc2)C[C@H]1c1cn(-c2ccccc2)nc1-c1ccccc1
88.6

Recorded growth of CNc1nnc2n(-c3ccccc3)c(=O)c3cnn(-c4ccccc4)c3n12 , please.
110

Need growth, item O=C1NC(=O)C(Cc2ccc(OCc3ccc(-c4ccc(Cl)cc4Cl)cc3)cc2)S1 (stereo not drawn)
73.8
